- tgt: EGFR[T790M/C797S/d746-750] (Homo sapiens, UniProt P00533, C797S/DEL746-750/T790M)
- Construct: purchased Carna Bio
- Sequence (P00533 with tags, fused parts or gaps DEL746-750/T790M/C797S limits assumed): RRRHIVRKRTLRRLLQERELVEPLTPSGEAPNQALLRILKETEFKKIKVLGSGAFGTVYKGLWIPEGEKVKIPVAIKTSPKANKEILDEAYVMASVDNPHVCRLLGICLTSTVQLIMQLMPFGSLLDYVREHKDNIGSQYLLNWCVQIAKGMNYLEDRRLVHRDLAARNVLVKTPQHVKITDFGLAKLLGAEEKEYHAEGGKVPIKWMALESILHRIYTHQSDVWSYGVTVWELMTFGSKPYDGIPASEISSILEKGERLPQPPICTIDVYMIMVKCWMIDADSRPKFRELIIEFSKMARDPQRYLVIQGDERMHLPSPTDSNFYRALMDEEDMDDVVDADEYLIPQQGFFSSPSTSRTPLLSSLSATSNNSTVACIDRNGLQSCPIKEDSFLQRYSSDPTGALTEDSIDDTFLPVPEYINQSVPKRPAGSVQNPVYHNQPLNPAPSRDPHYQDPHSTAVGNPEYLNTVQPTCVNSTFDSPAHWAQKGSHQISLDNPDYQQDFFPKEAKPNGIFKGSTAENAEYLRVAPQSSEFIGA
- experimental_protocol: Inhibition of EGFR[T790M/C797S/d746-750] biochemical enzymatic activity (HTRF)
- run_parameters: EGFR T790M-C797S-Del19, 1 mM ATP, 1 h, room temperature, read-out: IC50 (nM) @T790M - C797S - Del19
Documented IC50 across a set of compounds
Reply with just the number (in nM).

Some compounds with recorded IC50:
{"compound": "Cn1ncc2c1OCCN1CC3CCC(C3)(C1)n1c(nc3ccccc31)NC(=O)c1cc-2c(=O)n(C)c1 (stereo not drawn) [Example A61B]", "value_unit": "nM", "IC50": 1.7}
{"compound": "CN(C)C1CN(c2ccc3nc4n(c3c2)C23CCC(CN(CCOc5c(cnn5C)-c5cc(cn(C)c5=O)C(=O)N4)C2)C3)C1 (single isomer, unassigned) [Example A65B]", "value_unit": "nM", "IC50": 1.7}
{"compound": "CN1CCN(c2ccc3nc4n(c3c2)CC2(CCCOc3c(cnn3C)-c3cc(cn(C)c3=O)C(=O)N4)CC2)CC1", "value_unit": "nM", "IC50": 44}
{"compound": "Cn1ncc2c1OCCN1CCCCC(C)(C1)n1c(nc3ccc(N4CCOCC4)cc31)NC(=O)c1cc-2c(=O)n(C)c1 (stereo not drawn)", "value_unit": "nM", "IC50": 728}
{"compound": "CN1CCN(c2cc3c(cc2F)nc2n3C34CCC(CC3)CN(CCOc3c(cnn3C)-c3cc(cn(C)c3=O)C(=O)N2)C4)CC1", "value_unit": "nM", "IC50": 6.6}

As a next step, examine the compound that follows.
Query: Give the reported IC50 for this compound. Cn1ncc2c1OCCN1CCCC(C)(C1)n1c(nc3ccc(N4CCOCC4)cc31)NC(=O)c1cc-2c(=O)n(C)c1 (stereo not drawn)
Reply: 166

Every entry's value here was drawn from patent US20260365670A1.
